Target: Canine_OSMR_hlgG1_Fc (canine)
Sequence (chain, as listed by the source limits assumed, form in doubt): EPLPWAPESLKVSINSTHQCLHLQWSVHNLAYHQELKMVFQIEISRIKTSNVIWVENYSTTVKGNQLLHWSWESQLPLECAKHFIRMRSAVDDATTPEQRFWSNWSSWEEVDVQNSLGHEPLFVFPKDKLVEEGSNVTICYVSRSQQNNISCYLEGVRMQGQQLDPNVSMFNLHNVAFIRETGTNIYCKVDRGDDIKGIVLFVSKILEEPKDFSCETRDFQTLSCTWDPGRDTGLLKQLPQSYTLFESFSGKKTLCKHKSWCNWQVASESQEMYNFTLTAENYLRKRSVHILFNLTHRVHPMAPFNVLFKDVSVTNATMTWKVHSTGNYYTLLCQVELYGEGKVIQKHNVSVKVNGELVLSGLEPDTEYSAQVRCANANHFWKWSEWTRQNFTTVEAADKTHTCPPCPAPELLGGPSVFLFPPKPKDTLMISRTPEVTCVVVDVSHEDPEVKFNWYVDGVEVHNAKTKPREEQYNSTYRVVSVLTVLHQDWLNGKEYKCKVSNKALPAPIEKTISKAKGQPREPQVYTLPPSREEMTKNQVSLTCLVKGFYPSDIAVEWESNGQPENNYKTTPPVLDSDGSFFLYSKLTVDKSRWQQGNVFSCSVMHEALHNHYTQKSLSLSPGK
Experiment: SPR Biacore
Recorded Kd, one value per entry.
Reply with just the number (in nM).

Consider the following illustrative entries.
>  <binder>
Mu_02D09_VH (SEQ ID NO: 31)_Y32A (antibody, V domains shown) VH: EVQLVESGGGLVKPGGSLTLSCAASGFTFSDAGMHWLRQAPEKGLEWVAYISSGSRAVFFADTVKGRFTISRDNAKNTLFLQMTSLRSDDTAMYYCARDRYDGRGFAYWGQGTLVTVSA VL: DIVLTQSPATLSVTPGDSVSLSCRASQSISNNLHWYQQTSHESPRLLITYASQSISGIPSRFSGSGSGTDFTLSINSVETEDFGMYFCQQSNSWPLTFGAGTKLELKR

>  <Kd (nM)>
34.8

$$$$
>  <binder>
Mu_02D09_VL (SEQ ID NO: 33)_Q27A (antibody, V domains shown) VH: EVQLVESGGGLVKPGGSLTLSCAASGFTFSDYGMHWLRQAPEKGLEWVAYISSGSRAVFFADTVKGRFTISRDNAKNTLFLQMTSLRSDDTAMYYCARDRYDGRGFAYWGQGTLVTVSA VL: DIVLTQSPATLSVTPGDSVSLSCRASASISNNLHWYQQTSHESPRLLITYASQSISGIPSRFSGSGSGTDFTLSINSVETEDFGMYFCQQSNSWPLTFGAGTKLELKR

>  <Kd (nM)>
35

$$$$

The record that follows has no Kd shown yet.
Specify measured Kd for Mu_02D09_VL (SEQ ID NO: 33)_S56A (antibody, V domains shown) VH: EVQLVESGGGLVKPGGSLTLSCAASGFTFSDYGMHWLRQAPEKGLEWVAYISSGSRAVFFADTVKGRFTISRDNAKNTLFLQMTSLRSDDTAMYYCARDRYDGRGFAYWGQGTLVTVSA VL: DIVLTQSPATLSVTPGDSVSLSCRASQSISNNLHWYQQTSHESPRLLITYASQSIAGIPSRFSGSGSGTDFTLSINSVETEDFGMYFCQQSNSWPLTFGAGTKLELKR . 159
